selectivity ratio: recorded values
# Assay Protocol: in vitro
# Assay Setup: human, MT4 cells
# Description: Selectivity index, ratio of CC50 for cytotoxicity against human MT4 cells to EC50 for antiviral activity against NNRTI-resistant HIV-1 harboring F227L and V106A mutant infected in human MT4 cells
Lab note: write the figure by itself, no unit.

So what's the measured selectivity ratio for this one? Cc1cc(C#N)cc(C)c1Oc1nc(Nc2ccc(C#N)cc2)nc2c1CNCC2
145

Reported selectivity ratio, compound Cc1cc(C#N)cc(C)c1Oc1nc(Nc2ccc(C#N)cc2)nc2c1CN(Cc1ccc(C(N)=O)cc1)CC2 : ____
914

Reported selectivity ratio, compound C=CC(=O)N1CCc2nc(Nc3ccc(C#N)cc3)nc(Oc3c(C)cc(C#N)cc3C)c2C1 : ____
83

---

# Assay Protocol: in vitro
# Assay Setup: human, MT4 cells
# Description: Selectivity index, ratio of CC50 for cytotoxicity against human MT4 cells to EC50 for antiviral activity against wildtype HIV-1 IIIB infected in human MT4 cells
Metric Name: selectivity ratio

Cc1cc(C#N)cc(C)c1Oc1nc(Nc2ccc(C#N)cc2)nc2c1CN(C(=O)c1ccc([N+](=O)[O-])cc1)CC2 > 30000
Cc1ccc(C(=O)N2CCc3nc(Nc4ccc(C#N)cc4)nc(Oc4c(C)cc(C#N)cc4C)c3C2)cc1 > 34300
Cc1cc(C#N)cc(C)c1Oc1nc(Nc2ccc(C#N)cc2)nc2c1CN(Cc1ccc(S(N)(=O)=O)cc1)CC2 > 33400

What value of measured selectivity ratio is listed for Cc1cc(C#N)cc(C)c1Oc1nc(Nc2ccc(C#N)cc2)nc2c1CN(C(=O)c1cccc([N+](=O)[O-])c1)CC2 ?
> 28600

I am curious: what selectivity ratio value has been reported for COC(=O)c1ccc(C(=O)N2CCc3nc(Nc4ccc(C#N)cc4)nc(Oc4c(C)cc(C#N)cc4C)c3C2)cc1 ?
> 10600

If you can, please state the reported selectivity ratio value of Cc1cc(C#N)cc(C)c1Oc1nc(Nc2ccc(C#N)cc2)nc2c1CN(Cc1ccc(S(C)(=O)=O)cc1)CC2 .
> 25400

Which value of selectivity ratio has been reported for Cc1cc(C#N)cc(C)c1Oc1nc(Nc2ccc(C#N)cc2)nc2c1CN(C(=O)c1cccc(C#N)c1)CC2 in the records?
> 30600
